Below, each of the compounds is paired with its reported remaining at 0.5 h value.
assay summary: Plasma stability, HPLC radiochemical purity
cond: human
Number in %, nothing else.

{"columns": ["compound", "remaining at 0.5 h / %"],
 "data": [
  ["N=C(N)NCCC[C@@H]1NC(=O)[C@H](CCCCNC(=O)CN2CCN(CC(=O)O)CCN(CC(=O)O)CCN(CC(=O)O)CC2)NC(=O)[C@@H](Cc2ccccc2)NC(=O)[C@H](CC(=O)O)NC(=O)CNC1=O [^68Ga-DOTA-c(RGDfK), DOTA-c(RGDfK), metal not drawn]", 99.2]
]}

Provide measured remaining at 0.5 h value, entry: N=C(N)NCCC[C@@H]1NC(=O)[C@H](CCCCNC(=O)CCC(C(=O)O)N2CCN(CC(=O)O)CCN(CC(=O)O)CC2)NC(=O)[C@@H](Cc2ccc(O)cc2)NC(=O)[C@H](CC(=O)O)NC(=O)CNC1=O (stereo partly drawn) [^68Ga-NODAGA-c(RGDyK), NODAGA-c(RGDyK), metal not drawn]
99.2

Provide measured remaining at 0.5 h value, entry: N=C(N)NCCC[C@@H]1NC(=O)[C@H](CCCCNC(=O)CC[C@H](NC(=O)CCC(C(=O)O)N2CCN(CC(=O)O)CCN(CC(=O)O)CC2)C(=O)NCCCC[C@@H]2NC(=O)[C@@H](Cc3ccc(O)cc3)NC(=O)[C@H](CC(=O)O)NC(=O)CNC(=O)[C@H](CCCNC(=N)N)NC2=O)NC(=O)[C@@H](Cc2ccc(O)cc2)NC(=O)[C@H](CC(=O)O)NC(=O)CNC1=O (stereo partly drawn) [^68Ga-NODAGA-c(RGDyK)2, NODAGA-c(RGDyK)2, metal not drawn]
99.5

====

assay summary: in vivo
cond: female, SCID, mouse, total radioactivity, Tumor to kidney ratio
measure: tissue to tissue ratio at 0.5 h
Please give the numeric answer without any surrounding text.

Provide measured tissue to tissue ratio at 0.5 h value, entry: CSCC[C@H](NC(=O)[C@H](CC(C)C)NC(=O)CNC(=O)[C@H](Cc1ccccc1)NC(=O)[C@H](Cc1ccccc1)NC(=O)[C@H](CCC(N)=O)NC(=O)[C@H](CCC(N)=O)NC(=O)[C@@H]1CCCN1C(=O)[C@H](CCCCN)NC(=O)[C@@H]1CCCN1C(=O)[C@H](CCCNC(=N)N)NC(=O)CN1CCN(CC(=O)O)CCN(CC(=O)O)CCN(CC(=O)O)CC1)C(N)=O [^68Ga-DOTA-substance P, DOTA-substance P, metal not drawn]
0.14

====

assay summary: Plasma stability, HPLC radiochemical purity
cond: human
Below, each of the compounds is paired with its reported remaining at 1 h value.
Number in %, nothing else.

{"columns": ["compound", "observed"],
 "data": [
  ["N=C(N)NCCC[C@@H]1NC(=O)[C@H](CCCCNC(=O)CC[C@H](NC(=O)CCC(C(=O)O)N2CCN(CC(=O)O)CCN(CC(=O)O)CC2)C(=O)NCCCC[C@@H]2NC(=O)[C@@H](Cc3ccc(O)cc3)NC(=O)[C@H](CC(=O)O)NC(=O)CNC(=O)[C@H](CCCNC(=N)N)NC2=O)NC(=O)[C@@H](Cc2ccc(O)cc2)NC(=O)[C@H](CC(=O)O)NC(=O)CNC1=O (stereo partly drawn) [^68Ga-NODAGA-c(RGDyK)2, NODAGA-c(RGDyK)2, metal not drawn]", 99.3],
  ["N=C(N)NCCC[C@@H]1NC(=O)[C@H](CCCCNC(=O)CCC(C(=O)O)N2CCN(CC(=O)O)CCN(CC(=O)O)CC2)NC(=O)[C@@H](Cc2ccc(O)cc2)NC(=O)[C@H](CC(=O)O)NC(=O)CNC1=O (stereo partly drawn) [^68Ga-NODAGA-c(RGDyK), NODAGA-c(RGDyK), metal not drawn]", 99.1]
]}

Provide measured remaining at 1 h value, entry: N=C(N)NCCC[C@@H]1NC(=O)[C@H](CCCCNC(=O)CN2CCN(CC(=O)O)CCN(CC(=O)O)CCN(CC(=O)O)CC2)NC(=O)[C@@H](Cc2ccccc2)NC(=O)[C@H](CC(=O)O)NC(=O)CNC1=O [^68Ga-DOTA-c(RGDfK), DOTA-c(RGDfK), metal not drawn]
99.1

====

assay summary: in vivo
cond: female, SCID, mouse, total radioactivity, Tumor to kidney ratio
measure: tissue to tissue ratio at 1.5 h
Please give the numeric answer without any surrounding text.

Provide measured tissue to tissue ratio at 1.5 h value, entry: CSCC[C@H](NC(=O)[C@H](CC(C)C)NC(=O)CNC(=O)[C@H](Cc1ccccc1)NC(=O)[C@H](Cc1ccccc1)NC(=O)[C@H](CCC(N)=O)NC(=O)[C@H](CCC(N)=O)NC(=O)[C@@H]1CCCN1C(=O)[C@H](CCCCN)NC(=O)[C@@H]1CCCN1C(=O)[C@H](CCCNC(=N)N)NC(=O)CN1CCN(CC(=O)O)CCN(CC(=O)O)CCN(CC(=O)O)CC1)C(N)=O [^68Ga-DOTA-substance P, DOTA-substance P, metal not drawn]
0.04

====

Below, each of the compounds is paired with its reported logP value.
assay summary: Partition coefficient (log P), octanol/PBS
Please give the numeric answer without any surrounding text.

Solved cases below.
{"columns": ["compound", "logP"],
 "data": [
  ["N=C(N)NCCC[C@@H]1NC(=O)[C@H](CCCCNC(=O)CCC(C(=O)O)N2CCN(CC(=O)O)CCN(CC(=O)O)CC2)NC(=O)[C@@H](Cc2ccc(O)cc2)NC(=O)[C@H](CC(=O)O)NC(=O)CNC1=O (stereo partly drawn) [^68Ga-NODAGA-c(RGDyK), NODAGA-c(RGDyK), metal not drawn]", -3.05],
  ["N=C(N)NCCC[C@@H]1NC(=O)[C@H](CCCCNC(=O)CN2CCN(CC(=O)O)CCN(CC(=O)O)CCN(CC(=O)O)CC2)NC(=O)[C@@H](Cc2ccccc2)NC(=O)[C@H](CC(=O)O)NC(=O)CNC1=O [^68Ga-DOTA-c(RGDfK), DOTA-c(RGDfK), metal not drawn]", -3.43]
]}

Provide measured logP value, entry: N=C(N)NCCC[C@@H]1NC(=O)[C@H](CCCCNC(=O)CC[C@H](NC(=O)CCC(C(=O)O)N2CCN(CC(=O)O)CCN(CC(=O)O)CC2)C(=O)NCCCC[C@@H]2NC(=O)[C@@H](Cc3ccc(O)cc3)NC(=O)[C@H](CC(=O)O)NC(=O)CNC(=O)[C@H](CCCNC(=N)N)NC2=O)NC(=O)[C@@H](Cc2ccc(O)cc2)NC(=O)[C@H](CC(=O)O)NC(=O)CNC1=O (stereo partly drawn) [^68Ga-NODAGA-c(RGDyK)2, NODAGA-c(RGDyK)2, metal not drawn]
-3.34

====

assay summary: Ex vivo biodistribution
cond: mouse, tumor, Tumor uptake, 30 min p.i.
measure: tissue uptake at 0.5 h (%ID/g)
Number in %ID/g, nothing else.

Provide measured tissue uptake at 0.5 h value, entry: N=C(N)NCCC[C@@H]1NC(=O)[C@H](CCCCNC(=O)CC[C@H](NC(=O)CCC(C(=O)O)N2CCN(CC(=O)O)CCN(CC(=O)O)CC2)C(=O)NCCCC[C@@H]2NC(=O)[C@@H](Cc3ccc(O)cc3)NC(=O)[C@H](CC(=O)O)NC(=O)CNC(=O)[C@H](CCCNC(=N)N)NC2=O)NC(=O)[C@@H](Cc2ccc(O)cc2)NC(=O)[C@H](CC(=O)O)NC(=O)CNC1=O (stereo partly shown) [^68Ga-NODAGA-c(RGDyK)2, NODAGA-c(RGDyK)2, metal not drawn]
6

====

Below, each of the molecules is paired with its reported tissue to tissue ratio at 0.5 h value.
assay summary: Ex vivo biodistribution
cond: female, SCID, mouse, tumor and kidney, total radioactivity, Tumor to kidney ratio, 30 min p.i., from ex vivo biodistribution
Please give the numeric answer without any surrounding text.

{"columns": ["molecule", "tissue to tissue ratio at 0.5 h"],
 "data": [
  ["N=C(N)NCCC[C@@H]1NC(=O)[C@H](CCCCNC(=O)CN2CCN(CC(=O)O)CCN(CC(=O)O)CCN(CC(=O)O)CC2)NC(=O)[C@@H](Cc2ccccc2)NC(=O)[C@H](CC(=O)O)NC(=O)CNC1=O [^68Ga-DOTA-c(RGDfK), DOTA-c(RGDfK), metal not drawn]", 0.29],
  ["N=C(N)NCCC[C@@H]1NC(=O)[C@H](CCCCNC(=O)CCC(C(=O)O)N2CCN(CC(=O)O)CCN(CC(=O)O)CC2)NC(=O)[C@@H](Cc2ccc(O)cc2)NC(=O)[C@H](CC(=O)O)NC(=O)CNC1=O (stereo partly drawn) [^68Ga-NODAGA-c(RGDyK), NODAGA-c(RGDyK), metal not drawn]", 0.36]
]}

Consider the additional molecule presented here.
Provide measured tissue to tissue ratio at 0.5 h value, entry: N=C(N)NCCC[C@@H]1NC(=O)[C@H](CCCCNC(=O)CC[C@H](NC(=O)CCC(C(=O)O)N2CCN(CC(=O)O)CCN(CC(=O)O)CC2)C(=O)NCCCC[C@@H]2NC(=O)[C@@H](Cc3ccc(O)cc3)NC(=O)[C@H](CC(=O)O)NC(=O)CNC(=O)[C@H](CCCNC(=N)N)NC2=O)NC(=O)[C@@H](Cc2ccc(O)cc2)NC(=O)[C@H](CC(=O)O)NC(=O)CNC1=O (stereo partly drawn) [^68Ga-NODAGA-c(RGDyK)2, NODAGA-c(RGDyK)2, metal not drawn]
0.61
